Assay: Compatibility (clarity) in water borne urethane/acrylic copolymer coating, Example 101
Assay type: physicochemical
Details: 2% by weight stabilizer; haziness = incompatibility
Experimental: Formulation Reference: NeoResins, Inc., Formulation WB-2010, Technical Brochure, August, 2000. The following components are mixed together under good agitation: This solution is added to a 4 ounce clear glass jar containing 72.85 parts of NeoPac R-9699 under vigorous agitation and agitated for 10 minutes. Optionally, a defoamer, like Dehydran 1620 (Henkel), and a flash rusting agent, like Heiscore XAB (Cas Chem), are added. The lid is placed securely on the jar. […]
attribute.measured: Solidified coating in jar, clarity, 1 days

// known answers, use as guide
CCCCN(c1nc(Nc2ccc(S(=O)(=O)O)cc2)nc(N(CCCC)C2CC(C)(C)N(OC3CCCCC3)C(C)(C)C2)n1)C1CC(C)(C)N(OC2CCCCC2)C(C)(C)C1.Cl | clear
CCCCCCCCON1C(C)(C)CC(OC(=O)CCCCCCCCC(=O)OC2CC(C)(C)N(OCCCCCCCC)C(C)(C)C2)CC1(C)C | hazy
CC(=O)O.CCCCN(c1nc(NCCNCCNCCN)nc(N(CCCC)C2CC(C)(C)N(OC3CCCCC3)C(C)(C)C2)n1)C1CC(C)(C)N(OC2CCCCC2)C(C)(C)C1 | clear
CCCCN(c1nc(NCCN2CCNCC2)nc(N(CCCC)C2CC(C)(C)N(OC3CCCCC3)C(C)(C)C2)n1)C1CC(C)(C)N(OC2CCCCC2)C(C)(C)C1.Cl | clear
CON1C(C)(C)CC(NCCOCCOCCNC2CC(C)(C)N(OC)C(C)(C)C2)CC1(C)C | clear

Next compound, please.
Query :: Entry CCCCN(c1nc(Nc2ccc(Cl)c(C(=O)O)c2)nc(N(CCCC)C2CC(C)(C)N(OC3CCCCC3)C(C)(C)C2)n1)C1CC(C)(C)N(OC2CCCCC2)C(C)(C)C1 needs its Solidified coating in jar, clarity, 1 days filled in; supply it.
Result :: clear

* * *

Test: Solubility in 50% butyl carbitol / 50% water
Type: physicochemical
Details: 50% butyl carbitol / 50% water by weight; stirred 30 minutes
attribute.measured: Solubility (% by weight)
Numbers only; they are read as % by weight.

Query :: Entry CC(C)(O)CON1C(C)(C)CC(O)CC1(C)C [HALS B, reference compound] needs its Solubility (% by weight) filled in; supply it.
Result :: 13.4

Query :: Entry CCCCCCCCON1C(C)(C)CC(OC(=O)CCCCCCCCC(=O)OC2CC(C)(C)N(OCCCCCCCC)C(C)(C)C2)CC1(C)C [HALS A, reference compound] needs its Solubility (% by weight) filled in; supply it.
Result :: 0.2

* * *

Test: Solubility in 50% butyl cellusolve / 50% water
Format: physicochemical
Conditions: 50% butyl cellusolve / 50% water by weight; stirred 30 minutes
Give Solubility (% by weight) for every item shown.
Numbers only; they are read as % by weight.

Query :: Entry CC(C)(O)CON1C(C)(C)CC(O)CC1(C)C [HALS B, reference compound] needs its Solubility (% by weight) filled in; supply it.
Result :: 15.5

Query :: Entry CCCCCCCCON1C(C)(C)CC(OC(=O)CCCCCCCCC(=O)OC2CC(C)(C)N(OCCCCCCCC)C(C)(C)C2)CC1(C)C [HALS A, reference compound] needs its Solubility (% by weight) filled in; supply it.
Result :: 0.7

meta.source: patent US7550599B2
